Measured inhibition of the peak amplitude of NMDA evoked currents values are reported for all entries that follow.
System: NMDA receptor
Assay: Whole-cell voltage-clamp recordings of NMDA evoked currents in hypocretin neurons (hypothalamic slices)
Assay type: cell-based, mouse
Conditions: 10 μM, bath application, -60 mV, mean±SEM
EXPERIMENTAL_READOUT: inhibition of the peak amplitude of NMDA evoked currents (%)

# COMPOUND, READOUT_NUMBER
records = [
    ("CC12CC3(N)CC4C1CC1CC2C(N)(C3)C4(C)C1 (stereo not shown)", 13.2),
    ("CC12CC3CC4C1CC1(N)CC2C(C3)C4(C)C1", 11.6),
    ("CC12CC3(N)CC4C5CC(CC41)CC2C5C3", 19),
]

====

Biological target: NMDA receptor
Test: [3H]MK-801 binding assay, NMDA receptors in guinea pig brain membranes
Settings: guinea pig brain membrane preparation (Table 29); read-out: Ki
Description: Hartley guinea pigs were sacrificed, and their brains were quickly removed and weighed. The brains then were homogenized in 50 mM Tris HCl buffer, pH 7.7, using a Polytron homogenizer. […] Filters were dried overnight and counted next day on a Wallac Betaplate Reader. The binding experiments were conducted as follows. […] IC50 values and Hill coefficients were calculated using the program Prism. Ki values were calculated using the Chang Prusoff transformation: Ki=IC50/(1+L/Kd) […]

# COMPOUND, Ki
rows = [
    ("O=C(O)C12CC3CC4C1CC1CC2C(C3)C4(C(=O)O)C1 [MDT-39]", "> 1000 µM"),
    ("CC12CC3C4CC5(C)CC3C(C1)C(CN)(C5)C4C2 [MDT-63]", "5.1 µM"),
    ("OC12CC3CC4C5CC(CC41)CC2C5C3 [MDT-10]", "> 1000 µM"),
    ("CC12CC3(N)CC4C5CC(CC41)CC2C5C3 (single isomer, unassigned) [MDT-22 (prep from Example 4)]", "2.2 µM"),
    ("NC12CC3CC4C1CC1CC2C(C3)C4(N)C1 [MDT-4]", "99.6 µM"),
    ("OC12CC3C4CC5C6CC7CC5C(C4C1)C(C7)(C2)C63 [MDT-42]", "> 1000 µM"),
    ("CC12CC3CC4C1CC1(CN)CC2C(C3)C4(C)C1 [MDT-65]", "7.3 µM"),
    ("OC12CC3C4CC5(O)CC3C(C1)C(C5)C4C2 [MDT-14]", "> 1000 µM"),
    ("NC12CC3C4CC5(N)CC3C(C1)C(C5)C4C2 [MDT-5]", "268 µM"),
    ("Cl.NCC12CC3C4CC5CC3C(C1)C(C5)C4C2 [MDT-61]", "8 µM"),
    ("OC12CC3CC4C1CC1CC4C(O)(C3)C2C1 [MDT-13]", "> 1000 µM"),
    ("OC12CC3CC4C1CC1C5CC6CC1C2C(C6)(C3)C54 (stereo not drawn) [MDT-41]", "> 1000 µM"),
    ("OC12C3CC4CC5C3CC3C6CC(CC31)CC2(C4)C56 [MDT-40]", "> 1000 µM"),
    ("CC12CC3CC4C1CC1CC2C(N)(C3)C4(C)C1 (stereo not drawn) [MDT-43, 1,6-dimethyl-2-aminodiamantane]", "5.1 µM"),
    ("CC12CC3CC4C1CC1(C(=O)O)CC2C(C3)C4(C)C1 [MDT-46, 1,6-dimethyl-4-diamantanecarboxylic acid]", "> 1000 µM"),
    ("OC12CC3C4CC5CC3C(C1)C(C5)C4C2 [MDT-11]", "> 1000 µM"),
    ("CC12CC3C4CC5(C)CC3C(C1)C(O)(C5)C4C2 [MDT-47, 4,9-dimethyl-1-hydroxydiamantane]", "> 1000 µM"),
    ("OC12CC3C4CC5C6CC7(O)CC5C(C4C1)C(C2)(C7)C36 [MDT-15]", "> 1000 µM"),
]
